- experimental-target: ACMO (Gordonia sp. TY-5, UniProt A1IHE6, H325K)
- Construct: full-length, codon-optimised gene in pGEX4T1, E. coli DH5alpha; N-terminal GST removed with thrombin; calculated mass 59,780 Da
- Sequence (A1IHE6 whole entry H325K): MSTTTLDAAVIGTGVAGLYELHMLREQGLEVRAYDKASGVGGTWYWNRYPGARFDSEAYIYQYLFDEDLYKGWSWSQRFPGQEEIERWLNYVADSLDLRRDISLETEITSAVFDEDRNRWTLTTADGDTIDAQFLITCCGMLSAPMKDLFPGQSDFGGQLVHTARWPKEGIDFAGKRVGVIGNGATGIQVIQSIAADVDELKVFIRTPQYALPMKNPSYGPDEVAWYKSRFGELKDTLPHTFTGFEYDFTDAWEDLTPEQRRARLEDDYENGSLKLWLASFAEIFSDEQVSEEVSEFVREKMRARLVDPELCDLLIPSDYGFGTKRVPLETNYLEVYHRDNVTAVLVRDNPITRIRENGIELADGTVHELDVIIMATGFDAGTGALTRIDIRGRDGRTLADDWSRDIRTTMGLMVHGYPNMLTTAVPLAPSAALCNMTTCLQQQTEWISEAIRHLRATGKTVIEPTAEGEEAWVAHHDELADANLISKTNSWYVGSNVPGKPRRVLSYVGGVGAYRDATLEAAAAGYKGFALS
- test-summary: NADPH oxidation at […] nm, competitive inhibition fit
- condition-context: read-out: Measured values
outcome-measure: Ki
The reply must contain the numeric value and, after it, the unit.

Query (compound): NC(=O)c1ccc[n+]([C@@H]2O[C@H](COP(=O)(O)OP(=O)(O)OC[C@H]3O[C@@H](n4cnc5c(N)ncnc54)[C@H](OP(=O)(O)O)[C@@H]3O)[C@@H](O)[C@H]2O)c1 ; field requested: Ki
27 µM

###

- experimental-target: ACMO (Gordonia sp. TY-5)
outcome-measure: Ki (µM)
A number alone suffices; assume µM.

Provide value of Ki for this record tested with ACMO (Gordonia sp. TY-5): NC(=O)c1ccc[n+]([C@@H]2O[C@H](COP(=O)(O)OP(=O)(O)OC[C@H]3O[C@@H](n4cnc5c(N)ncnc54)[C@H](OP(=O)(O)O)[C@@H]3O)[C@@H](O)[C@H]2O)c1
166

###

- experimental-target: GSTACMO (Gordonia sp. TY-5)
- Construct: gene acmA; full-length with N-terminal GST tag kept (pGEX4T1), E. coli DH5alpha
- test-summary: flavin absorbance titration at […] nm, quadratic fit
- Assay type: binding
outcome-measure: Kd (µM)
A number alone suffices; assume µM.

Provide value of Kd for this record tested with GSTACMO (Gordonia sp. TY-5): NC(=O)c1ccc[n+]([C@@H]2O[C@H](COP(=O)(O)OP(=O)(O)OC[C@H]3O[C@@H](n4cnc5c(N)ncnc54)[C@H](OP(=O)(O)O)[C@@H]3O)[C@@H](O)[C@H]2O)c1
21.1

###

- experimental-target: GSTACMO (Gordonia sp. TY-5, UniProt A1IHE6, H325K)
- Construct: full-length with N-terminal GST tag kept (pGEX4T1), E. coli DH5alpha
- Sequence (A1IHE6 whole entry H325K): as above
- test-summary: flavin absorbance titration at […] nm, quadratic fit
outcome-measure: pKd
Formally, pKd is defined as -log10 of the concentration c, with c in mol/L.

Provide value of pKd for this record tested with GSTACMO (Gordonia sp. TY-5, UniProt A1IHE6, H325K): NC(=O)c1ccc[n+]([C@@H]2O[C@H](COP(=O)(O)OP(=O)(O)OC[C@H]3O[C@@H](n4cnc5c(N)ncnc54)[C@H](OP(=O)(O)O)[C@@H]3O)[C@@H](O)[C@H]2O)c1
6.30

###

- experimental-target: GSTACMO (Gordonia sp. TY-5, UniProt A1IHE6)
- Construct: gene acmA; full-length with N-terminal GST tag kept (pGEX4T1), E. coli DH5alpha
- Sequence (A1IHE6 whole entry): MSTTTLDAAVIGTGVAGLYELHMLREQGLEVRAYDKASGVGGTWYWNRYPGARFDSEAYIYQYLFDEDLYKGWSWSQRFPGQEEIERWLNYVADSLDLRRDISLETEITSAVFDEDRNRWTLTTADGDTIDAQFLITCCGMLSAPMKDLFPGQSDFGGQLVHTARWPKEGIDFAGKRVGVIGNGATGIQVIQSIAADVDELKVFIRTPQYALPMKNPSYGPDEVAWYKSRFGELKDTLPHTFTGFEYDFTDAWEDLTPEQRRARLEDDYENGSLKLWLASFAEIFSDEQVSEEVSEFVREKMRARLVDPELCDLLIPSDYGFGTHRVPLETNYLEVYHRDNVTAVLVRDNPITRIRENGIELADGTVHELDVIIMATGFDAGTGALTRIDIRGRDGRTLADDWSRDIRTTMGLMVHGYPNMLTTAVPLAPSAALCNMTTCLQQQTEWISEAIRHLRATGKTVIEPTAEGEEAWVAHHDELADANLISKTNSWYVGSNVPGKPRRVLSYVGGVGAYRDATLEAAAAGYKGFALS
- test-summary: stopped-flow flavin reduction at […] nm, hyperbolic fit of kobs
- Type: biochemical
- condition-context: 50 mM HEPES pH 7.5, 20% glycerol, 25 °C, anaerobic; oxidized enzyme; text b56 prints 121; table labels it ACMO, done on GSTACMO; read-out: Measured values
outcome-measure: pKd
Formally, pKd is defined as -log10 of the concentration c, with c in mol/L.

Query (molecule): NC(=O)C1=CN([C@@H]2O[C@H](COP(=O)(O)OP(=O)(O)OC[C@H]3O[C@@H](n4cnc5c(N)ncnc54)[C@H](OP(=O)(O)O)[C@@H]3O)[C@@H](O)[C@H]2O)C=CC1 ; field requested: pKd
3.92
